tested on: Puccinia recondita f. sp. tritici; assay: Test H: wheat leaf rust, test suspension sprayed after inoculation of wheat seedlings, visual disease rating; format: in vivo; details: 200 ppm; 100 = 100% disease control, 0 = no control relative to controls
Listed below: Test H disease control rating values for each entry.
OBSERVATION_TYPE: Test H disease control rating (%)

| MOLECULE | MEAS_VALUE |
| --- | --- |
| Fc1ccc(-n2c(Cl)nc(Br)c2-c2ccc(Cl)cc2)c(Cl)c1 | 9 |
| Cn1c(-c2c(Br)nc(Br)n2-c2ccc(Cl)cc2)nc(Br)c1Br | 0 |
| COc1cc(F)c(-c2c(Cl)nc(Cl)n2C(C)c2ncc(Cl)cc2Cl)c(F)c1 (stereo not drawn) | 15 |
| Cc1ncn(-c2ccc(Cl)c(F)c2)c1-c1cncc(Br)c1 | 9 |
| Cc1ncc(Cc2ccc(F)cc2F)n1-c1ccc(Cl)cc1 | 0 |
| COc1cc(F)c(-c2c(Cl)nc(Cl)n2-c2ccc(Cl)nc2OC)c(F)c1 | 0 |
| COc1cc(F)c(-c2c(Cl)nc(Cl)n2-c2cccnc2Br)c(F)c1 | 100 |
| COc1cc(F)c(-c2c(Cl)nc(Br)n2-c2ccc(OC)nc2)c(F)c1 | 100 |
| Fc1ccc(-n2c(Br)nc(Cl)c2-c2ccc(Cl)cc2)c(Cl)c1 | 0 |
| Fc1cc(-n2c(Cl)nc(Cl)c2-c2c(F)cncc2F)ccc1Cl | 99 |
| N#Cc1ccc(F)c(-c2c(CCl)nc(Cl)n2-c2ccc(Cl)nc2)c1F | 0 |
| COc1cc(Cl)c(-c2c(Cl)nc(Br)n2-c2ccc(Cl)c(F)c2)c(Cl)c1 | 0 |
| COc1ccc(F)c(-c2c(Cl)nc(Br)n2-c2ccc(C#N)cc2)c1F | 0 |
| COc1ccc(F)c(-c2c(Cl)ncn2-c2ccc(F)cc2)c1F | 0 |
| Cc1nc(Cl)c(-c2ccc(Cl)cc2)n1-c1ccc(F)cc1Cl | 0 |
| Fc1cc(-n2cnc(Cl)c2-c2c(F)cncc2F)ccc1Cl | 78 |
| Fc1ccc(F)c(-c2c(Br)ncn2-c2ccc(Cl)cc2)c1Cl | 0 |
| Cc1nc(Br)c(-c2ccc(Cl)cc2)n1-c1ccc(F)cc1Cl | 0 |
| CCc1cccc(-n2c(Cl)nc(Cl)c2-c2c(F)ccc(OC)c2F)c1 | 0 |
| Cc1nc(Br)n(-c2ccc(F)cc2Cl)c1-c1ccc(Cl)cc1 | 0 |
| Cc1nc(Br)c(Cc2ccc(F)cc2F)n1-c1ccc(Cl)cc1 | 0 |
| COc1nc(Cl)ccc1-n1c(Cl)nc(Cl)c1-c1c(F)cccc1F | 51 |
| Fc1cc(-n2c(Cl)nc(Cl)c2-c2cccc(Br)n2)ccc1Cl | 0 |
| Fc1cc(-n2c(Cl)nc(CCl)c2-c2cncc(Br)c2)ccc1Cl | 0 |
| CCc1cccc(-n2c(C)nc(Cl)c2-c2c(F)ccc(OC)c2F)c1 | 0 |
| Cc1ncn(-c2ccc(Cl)c(F)c2)c1-c1scnc1Cl | 0 |
| COc1ccc(F)c(-c2c(Cl)nc(Cl)n2-c2ccc(F)cc2)c1F | 18 |
| COc1cc(F)c(-c2c(Cl)ncn2-c2ccc(F)c(F)c2)c(F)c1 | 0 |
| Cc1nc(Br)c(Cc2c(F)cc(F)cc2F)n1-c1c(Cl)cccc1Cl | 27 |
| Fc1cc(F)c(-c2c(Cl)nc(Br)n2-c2cccc(OC(F)(F)F)c2)c(F)c1 | 0 |
| Fc1cccc(-n2cnc(Cl)c2-c2c(F)cc(F)cc2F)c1 | 0 |
| COc1ccc(F)c(-c2c(Cl)nc(C)n2-c2ccc(Br)cc2)c1F | 15 |
| CCOc1ccc(F)c(-c2c(Cl)ncn2-c2cccc(F)c2)c1F | 0 |
| COc1ccc(F)c(-c2c(Br)nc(Br)n2-c2ccc(Cl)cc2)c1F | 0 |
| COc1ccc(F)c(-c2c(C)nc(Br)n2-c2ccc(Cl)nc2)c1F | 9 |
| COc1cc(F)c(-c2c(Cl)nc(C)n2-c2ccc(Cl)nc2)c(F)c1 | 100 |

---

Test D disease control rating values by entry
tested on: Alternaria solani; assay: Test D: tomato early blight, sprayed the day before inoculation, visual disease rating; assay type: in vivo; settings: 40 ppm (marked *); 100 = 100% disease control
Marks after values point to notes of the source that are not given here.
OBSERVATION_TYPE: Test D disease control rating

| MOLECULE | MEAS_VALUE |
| --- | --- |
| COc1cc(F)c(-n2c(Cl)nc(CCl)c2-c2ccc(C)cc2)c(F)c1 [compound 581] | 33* % |
| COc1cc(F)c(-c2c(Cl)nc(Br)n2-c2ccc(C)c(C#N)c2)c(F)c1 [compound 607] | 96* % |
| COc1ccc(F)c(-c2c(Cl)nc(C)n2-c2ccc(C)c(F)c2)c1F [compound 590] | 100* % |
| COc1cc(F)c(-c2c(Cl)nc(Cl)n2-c2ccc(C)c(Cl)c2)c(F)c1 [compound 502] | 92* % |
| COc1cc(F)c(-c2c(C)nc(C)n2-c2ccc(Cl)cc2)c(F)c1 [compound 55] | 100* % |
| CN(C)c1c(Cl)cc(-n2cnc(Cl)c2-c2c(F)cccc2F)cc1Cl [compound 652] | 0* % |
| Cc1ccc(-n2c(Cl)nc(C)c2-c2c(F)ccc(F)c2F)cc1 [compound 496] | 99* % |
| CC(=O)Nc1ccc(-n2c(Cl)nc(Cl)c2-c2c(F)cccc2F)cc1Cl [compound 636] | 24* % |
| COc1cc(F)c(-c2c(Cl)nc(Cl)n2-c2ccc(C)cc2F)c(F)c1 [compound 653] | 99* % |

---

test system: Puccinia recondita f. sp. tritici; experiment: Test I: wheat leaf rust on wheat seedlings, sprayed the day before inoculation, visual disease rating; type: in vivo; settings: 200 ppm; 100 = 100% disease control, 0 = no control
OBSERVATION_TYPE: Test I disease control rating

| MOLECULE | MEAS_VALUE |
| --- | --- |
| Fc1ccc(-n2c(Br)nc(Cl)c2-c2c(F)cccc2Cl)cc1 | 100% |
| Cc1ccc(-n2c(Br)nc(Cl)c2-c2c(F)cc(F)cc2F)cc1 | 99% |
| Fc1ccc(-c2c(Cl)nc(Cl)n2-c2ccc(Cl)c(F)c2)c(Cl)c1 | 89% |
| COc1cc(Cl)cc(F)c1-c1c(Cl)nc(C)n1-c1ccc(Cl)cc1 | 95% |
| Cc1nc(Cl)c(-c2c(F)ccc(F)c2F)n1-c1ccc(Cl)c(F)c1 | 100% |
| Cc1ccc(-n2c(Br)nc(Cl)c2-c2c(F)ccc(F)c2Cl)cc1 | 100% |
| Cc1ncn(-c2ccc(Cl)c(F)c2)c1-c1ccccn1 | 9% |
| COc1ccc(F)c(-c2c(Cl)ncn2Cc2ccc(Cl)cc2)c1F | 99% |
| COc1cc(F)c(-c2c(N(C)C)ncn2Cc2ccc(Cl)cc2)c(F)c1 [compound 265] | 61% |
| COc1cc(F)c(-c2c(Cl)nc(Br)n2-c2ccc(C)cc2)c(F)c1 | 100% |
| Cc1ccc(-n2cnc(Cl)c2-c2c(F)cccc2F)cc1F | 80% |
| Fc1cc(-n2cnc(Cl)c2-c2c(F)cccc2Cl)ccc1Cl | 84% |

---

tested on: Alternaria solani; test: Test D: tomato early blight, sprayed the day before inoculation, visual disease rating; assay type: in vivo; details: 40 ppm (marked *); 100 = 100% disease control
Marks after values point to notes of the source that are not given here.

| MOLECULE | Test D disease control rating |
| --- | --- |
| COc1cc(F)c(-c2c(C)ncn2-c2ccc(Cl)cc2)c(F)c1 [compound 56] | 100* % |
| COc1cc(F)c(-c2c(Br)nc(OC)n2-c2ccc(Cl)cc2)c(F)c1 [compound 96] | 100* % |
| Fc1cc(F)c(-n2cnc(Cl)c2-c2ccc(Cl)cc2)c(F)c1 [compound 98] | 0* % |
| Cc1nc(Cl)c(-c2c(F)cccc2F)n1-c1ccc2c(c1)OCCO2 [compound 470] | 99* % |
| COc1cc(F)c(-c2c(Cl)nc(Br)n2-c2ccc(C)c(I)c2)c(F)c1 [compound 655] | 0* % |
| Fc1cccc(F)c1-c1c(Cl)nc(CCl)n1-c1ccc2c(c1)OCCO2 [compound 469] | 0* % |
| COc1cc(OC)cc(-n2c(Br)nc(C)c2-c2c(F)cc(OC)cc2F)c1 [compound 657] | 99* % |
| COc1cc(F)c(-n2c(Cl)nc(C)c2-c2ccc(C)cc2)c(F)c1 [compound 564] | 100* % |
| CC(=O)Nc1ccc(-n2c(Cl)nc(Cl)c2-c2c(F)cccc2F)cc1 [compound 637] | 0* % |

---

test system: Puccinia recondita f. sp. tritici; assay: Test I: wheat leaf rust on wheat seedlings, sprayed the day before inoculation, visual disease rating; assay type: in vivo; settings: 40 ppm (marked *); 100 = 100% disease control
Marks after values point to notes of the source that are not given here.
OBSERVATION_TYPE: Test I disease control rating

| SMILES | OBSERVATION_TYPE | MEAS_VALUE |
| --- | --- | --- |
| COc1cc(F)c(-c2c(C)nc(C)n2-c2ccc(Cl)cc2)c(F)c1 | Test I disease control rating | 99* % |
| CC(=O)Nc1ccc(-n2c(Br)nc(Cl)c2-c2c(F)cccc2F)cc1 | Test I disease control rating | 52* % |
| Cc1nc(Cl)n(-c2ccc(Cl)c(F)c2)c1-c1c(F)ccc(F)c1Cl | Test I disease control rating | 99* % |
| COC(=O)c1ccc(-n2cnc(Cl)c2-c2c(F)cccc2F)cc1 | Test I disease control rating | 28* % |
| COc1cc(F)c(-c2c(Cl)nc(Cl)n2-c2ccc(C)c(I)c2)c(F)c1 | Test I disease control rating | 0* % |
| COc1cc(F)c(-n2cnc(C)c2-c2cccc(F)c2)c(F)c1 | Test I disease control rating | 0* % |
| Fc1ccc(-n2c(Br)nc(Br)c2-c2c(F)cc(F)cc2F)cc1 | Test I disease control rating | 78* % |
| COc1cc(F)c(-c2c(Cl)nc(C)n2-c2ccc(C)c(C#N)c2)c(F)c1 | Test I disease control rating | 97* % |
| COc1cc(F)c(-c2c(C)nc(C)n2-c2ccc(F)cc2)c(F)c1 | Test I disease control rating | 99* % |
